Could you please report measured peptide-specific response, donor HH-N12-36, post COVID-19 for the items listed next?
- System: pre-cultured PBMCs (NSP12-specific T cells)
- Test: IFN-γ ELISpot with single 15-mer peptides after 11–13 days in vitro peptide-pool T-cell expansion; further: unit not given here
- Type: cell-based, human
- Experimental conditions: donor HH-N12-36; sample post COVID-19; single NSP12 15-mer peptides

[[record]]
biosequence = "RIMASLVLARKHTTC [compound 127]"
value_measured = 0


Parameter requested: peptide-specific response, donor HH-N12-36, post COVID-19. Apply to each item below.
1. IDSYFVVKRHTFSNY [compound 14]
2. DIYNDKVAGFAKFLK [compound 8]

1: 0; 2: 0
